Reported CC50 at 5 days values for the following compounds.
Experiment: Cytotoxicity in mock-infected MT-4 cells, MTT method
Conditions: human, mock-infected (uninfected) MT-4 cells
test-readout: CC50 at 5 days (µM)

• Cc1cnc(Nc2ccc(C#N)cc2)nc1C(C#N)c1ccc(C#N)cc1 (stereo not drawn) = 109
• Cc1cnc(Nc2ccc(C#N)cc2)nc1C(C#N)c1ccc(C#N)cc1Cl (stereo not drawn) = 9.6
• N#Cc1ccc(Nc2nccc(C(C#N)c3ccc(C#N)cc3C(F)(F)F)n2)cc1 (stereo not drawn) = 6.2
• Cc1cc(C(C#N)c2ccnc(Nc3ccc(C#N)cc3)n2)ccc1C#N (stereo not drawn) = 16.1
• Cc1c(C(C#N)c2ccnc(Nc3ccc(C#N)cc3)n2)ccc(C#N)c1Cl (stereo not drawn) = 6.1
• N#Cc1ccc(Nc2nccc(C(C#N)c3ccc(C#N)cc3)n2)cc1 (stereo not drawn) = 32.7
• N#Cc1ccc(Nc2nccc(C(C#N)c3ccc(C#N)cc3Cl)n2)cc1 (stereo not drawn) = 4.6
• Cc1cc(C#N)c(Br)cc1C(C#N)c1nc(Nc2ccc(C#N)cc2)ncc1C (stereo not drawn) = 9.8

---

Recorded melting point for the following compounds
test-readout: melting point

* COc1cc(C(C#N)c2ccnc(Nc3ccc(C#N)cc3)n2)ccc1C#N (stereo not drawn) | 156.2 to 157 °C
* Cc1cnc(Nc2ccc(C#N)cc2)nc1C(C#N)c1ccc(C#N)cc1 (stereo not drawn) | 243.1 to 243.7 °C
* Cc1cnc(Nc2ccc(C#N)cc2)nc1C(C#N)c1ccc(C#N)cc1Cl (stereo not drawn) | 213.6 to 214.2 °C

---

Test system: HIV-1 IIIB
Test: Anti-HIV assay against wild-type HIV-1 (IIIB) in MT-4 cells, MTT method
Type: cell-based
Details: Human immunodeficiency virus 1, IIIB, MT4, read-out: EC50 HIV-1 IIIB
pEC50: −log10 of the molar value.
test-readout: pEC50

* Cc1cnc(Nc2ccc(C#N)cc2)nc1C(C#N)c1ccc(C#N)cc1Br (stereo not drawn) | 8.22
* N#Cc1ccc(Nc2nccc(C(C#N)c3c(Cl)cc(C#N)cc3Cl)n2)cc1 (stereo not drawn) | 7.09
* N#Cc1ccc(Nc2nccc(C(C#N)c3ccc(C#N)cc3F)n2)cc1 (stereo not drawn) | 6.62
* Cc1cc(C#N)ccc1C(C#N)c1ccnc(Nc2ccc(C#N)cc2)n1 (stereo not drawn) | 7.16
* Cc1cc(C#N)c(Br)cc1C(C#N)c1nc(Nc2ccc(C#N)cc2)ncc1C (stereo not drawn) | 8.10
* COc1cc(C(C#N)c2ccnc(Nc3ccc(C#N)cc3)n2)ccc1C#N (stereo not drawn) | 4.93
* Cc1cc(C#N)cc(C)c1Oc1nc(Nc2ccc(C#N)cc2)nc(N)c1Br [Etravirine, etravirine, reference compound] | 8.30
* Cc1cnc(Nc2ccc(C#N)cc2)nc1C(C#N)c1ccc(C#N)c(Cl)c1C (stereo not drawn) | 7.70
* Cc1cnc(Nc2ccc(C#N)cc2)nc1C(C#N)c1ccc(C#N)cc1F (stereo not drawn) | 7.40
* Cc1c(C(C#N)c2ccnc(Nc3ccc(C#N)cc3)n2)ccc(C#N)c1Cl (stereo not drawn) | 6.52
* N#Cc1ccc(Nc2nccc(C(C#N)c3ccc(C#N)cc3)n2)cc1 (stereo not drawn) | 5.49
* Cc1cnc(Nc2ccc(C#N)cc2)nc1C(C#N)c1ccc(C#N)cc1 (stereo not drawn) | 6.52

Cited source: paper PMC7180830
